Values were extracted from patent US20260008760A1.

Reported inhibition at 0.01 µM values follow for various compounds
# assayed system: human DPP1 enzyme (Homo sapiens, UniProt P53634)
# Sequence (P53634 25-463): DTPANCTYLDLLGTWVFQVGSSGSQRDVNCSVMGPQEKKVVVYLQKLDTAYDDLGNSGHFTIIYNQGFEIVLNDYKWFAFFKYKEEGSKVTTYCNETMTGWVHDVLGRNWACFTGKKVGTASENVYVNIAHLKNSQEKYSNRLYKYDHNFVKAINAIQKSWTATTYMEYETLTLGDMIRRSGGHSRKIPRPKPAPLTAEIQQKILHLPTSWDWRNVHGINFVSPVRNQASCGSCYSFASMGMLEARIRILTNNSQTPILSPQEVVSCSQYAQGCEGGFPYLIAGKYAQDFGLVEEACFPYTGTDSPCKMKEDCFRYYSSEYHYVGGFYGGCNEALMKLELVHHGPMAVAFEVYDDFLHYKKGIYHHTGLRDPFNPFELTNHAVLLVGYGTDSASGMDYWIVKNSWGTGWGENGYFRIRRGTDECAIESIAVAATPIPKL
# protocol details: Human DPP1 Enzyme Single-Point Percent Inhibition Testing (HL-60 lysate)
# Type: biochemical
# Parameters: A crude lysate of HL-60 cells (ATCC; Manassas, VA) was used as a source of human DPP1 enzyme; host or cells: HL-60 cells (crude lysate)
# particulars: final compound concentration of 10 nM, 400 μM H-Gly-Arg-AMC, n = 1

{"columns": ["compound", "inhibition at 0.01 µM"],
 "data": [
  ["CCN1C(=O)Cc2ccc(-c3ccc(C[C@@H](C#N)NC(=O)[C@@H]4CNCCCO4)cc3)cc21", "≤ 40%"],
  ["C[C@@H]1NC[C@@H](C(=O)N[C@H](C#N)Cc2ccc(-c3ccc4nnn(C)c4c3)cc2)OC[C@H]1O", "≥ 66.7%"],
  ["CO[C@H]1CCO[C@H](C(=O)N[C@H](C#N)Cc2cc3c(cc2F)-c2ccc(C#N)cc2CO3)CNC1", "40 to 66.7%"],
  ["N#C[C@H](Cc1cc2c(cc1F)-c1ccc(F)cc1CO2)NC(=O)[C@@H]1CNCCCO1", "40 to 66.7%"],
  ["CO[C@@H]1CCNC[C@@H](C(=O)N[C@H](C#N)Cc2ccc(-c3ccc4c(n3)CCCN4)cc2)OC1", "40 to 66.7%"],
  ["C[C@@H]1NC[C@@H](C(=O)NC(C#N)Cc2cc3c(cc2F)-c2cc4c(cc2CO3)oc(=O)n4C)OC[C@@H]1O (some centres unmarked)", "≥ 66.7%"],
  ["CO[C@@H]1CCNC[C@@H](C(=O)N[C@H](C#N)Cc2ccc(-c3ccc4cnn(C5CCN(C)CC5)c4c3)cc2F)OC1", "≥ 66.7%"],
  ["CCN1C(=O)Cc2ccc(-c3ccc(C[C@@H](C#N)NC(=O)[C@@H]4CNC[C@@H](OC)CCO4)c(F)c3)cc21", "≥ 66.7%"],
  ["CO[C@H]1CCO[C@H](C(=O)N[C@H](C#N)Cc2ccc(-c3ccc4c(n3)CCCN4)cc2F)CNC1", "40 to 66.7%"],
  ["CCN1C(=O)Cc2ccc(-c3ccc(C[C@@H](C#N)NC(=O)[C@@H]4CN[C@@H](C)[C@H](O)CO4)c(F)c3)cc21", "≥ 66.7%"],
  ["CO[C@H]1CCO[C@H](C(=O)N[C@H](C#N)Cc2ccc(-c3ccc4c(n3)CCCN4)cc2)CNC1", "≤ 40%"],
  ["Cn1ncc2ccc(-c3ccc(C[C@@H](C#N)NC(=O)[C@@H]4CNCCCCO4)cc3)cc21", "≤ 40%"],
  ["COC1CNC[C@@H](C(=O)N[C@H](C#N)Cc2ccc(-c3ccc4cnn(C5CCN(C)CC5)c4c3)cc2)OC1 (some centres unmarked)", "≥ 66.7%"],
  ["COC1CNC[C@@H](C(=O)N[C@H](C#N)Cc2ccc(-c3cnc4c(n3)CCCC4)cc2)OC1 (some centres unmarked)", "≥ 66.7%"]
]}

====

# assayed system: DPP1 in HL-60 cells (Homo sapiens, UniProt P53634)
# Sequence (P53634 25-463): as above
# protocol details: DPP1 Cell IC50 assay
# Type: cell-based
# Set-up: host or cells: HL-60 cells
# particulars: 60 min pre-incubation, H-Gly-Phe-AFC substrate, average of n runs, read-out: Avg. IC50 (DPP1 Cell IC50 value ranges)
pIC50: −log10 of the molar value.

{"columns": ["compound", "pIC50"],
 "data": [
  ["N#C[C@H](Cc1cc2c(cc1F)-c1cc3c(cc1CO2)COC31CCN(C2COC2)CC1)NC(=O)[C@@H]1CNCCCCO1", "< 8.60"],
  ["Cc1c(C(N)=O)sc2ncc(-c3ccc(C[C@@H](C#N)NC(=O)[C@@H]4CNCCCO4)cc3)cc12", "< 8.60"],
  ["Cc1cn2cc(-c3ccc(C[C@@H](C#N)NC(=O)[C@@H]4CNCCCO4)cc3)cc2c(C)n1", "< 8.60"],
  ["N#C[C@H](Cc1ccc(-c2cc3c(F)nccn3c2)cc1)NC(=O)[C@@H]1CNCCCO1", "< 8.60"],
  ["CO[C@H]1CCO[C@H](C(=O)N[C@H](C#N)Cc2ccc(-c3cc4c(C)nc(C)cn4c3)cc2F)CNC1", "8.60 to 9.00"],
  ["N#C[C@H](Cc1ccc(-c2ccc3c(c2)[C@]2(CCCN(C#N)C2)SC3)cc1)NC(=O)[C@@H]1CNCCCO1", "< 8.60"],
  ["N#C[C@H](Cc1ccc(-c2cc3cnccn3c2)cc1)NC(=O)[C@@H]1CNCCCO1", "< 8.60"],
  ["Cn1c(=O)oc2cc3c(cc21)-c1cc(F)c(CC(C#N)NC(=O)[C@@H]2CNCCCCO2)cc1OC3 (single isomer, unassigned) [Compound C6]", "< 8.60"],
  ["Cn1ncc2cc3c(cc21)-c1cc(F)c(C[C@@H](C#N)NC(=O)[C@@H]2CNCCCO2)cc1OC3", "8.60 to 9.00"],
  ["N#Cc1ccc2c(c1)COc1cc(CC(C#N)NC(=O)[C@@H]3CNCCCCO3)c(F)cc1-2 (some centres unmarked) [Compound B7]", "< 8.60"],
  ["C[C@@H]1NC[C@@H](C(=O)N[C@H](C#N)Cc2ccc(-c3ccc4c(F)nn(C)c4c3)cc2)OC[C@@H]1O", "8.60 to 9.00"],
  ["CO[C@H]1CCO[C@H](C(=O)NC(C#N)Cc2cc3cc(-c4cc5c(C)nc(C)cn5c4)ccc3s2)CNC1 (single isomer, unassigned)", "< 8.60"],
  ["N#C[C@H](Cc1ccc(-c2ccc3c(c2)C2(CCNCC2)C(=O)C3)cc1)NC(=O)[C@@H]1CNCCCO1", "< 8.60"],
  ["N#C[C@H](Cc1ccc(-c2ccc3c(c2)[C@@]2(CCCN(C4CC4)C2)COC3)cc1)NC(=O)[C@@H]1CNCCCO1", "< 8.60"]
]}

====

Reported inhibition at 0.01 µM values follow for various molecules
# assayed system: UniProt P53634
# protocol details: Human DPP1 Enzyme Single-Point Percent Inhibition Testing (HL-60 lysate)
# Type: biochemical
# Parameters: A crude lysate of HL-60 cells (ATCC; Manassas, VA) was used as a source of human DPP1 enzyme; host or cells: HL-60 cells (crude lysate)
# particulars: final compound concentration of 10 nM, 400 μM H-Gly-Arg-AMC, n = 1

{"columns": ["molecule", "assayed system", "inhibition at 0.01 µM"],
 "data": [
  ["COC1CNC[C@@H](C(=O)N[C@H](C#N)Cc2ccc(-c3cc4c(C)nc(C)c(C)n4c3)cc2)OC1 (some centres unmarked) [Compound A126]", "UniProt P53634", "≥ 66.7%"],
  ["CO[C@H]1CCO[C@H](C(=O)N[C@H](C#N)Cc2ccc(-c3ccc(CN4CCN(C)CC4)cc3)cc2F)CNC1 [Compound F28]", "UniProt P53634", "≤ 40%"],
  ["CO[C@@H]1CCNC[C@@H](C(=O)N[C@H](C#N)Cc2ccc(-c3ccc(S(=O)(=O)N4CCC4)cc3)cc2F)OC1 [Compound F17]", "UniProt P53634", "≥ 66.7%"],
  ["Cc1nc(C)c2cc(-c3ccc(C[C@@H](C#N)NC(=O)[C@@H]4CNCCCO4)cc3)cn2c1C [Compound A141]", "UniProt P53634", "≤ 40%"],
  ["COC1CNC[C@@H](C(=O)N[C@H](C#N)Cc2ccc(-c3ccc4nnn(C)c4c3)cc2F)OC1 (some centres unmarked) [Compound H14]", "UniProt P53634", "≥ 66.7%"],
  ["CO[C@H]1CCO[C@H](C(=O)N[C@H](C#N)Cc2ccc(-c3ccc4c(c3)C3(CN(C)C3)OC4=O)cc2)CNC1 [Compound F20]", "UniProt P53634", "40 to 66.7%"],
  ["CCN1C(=O)Cc2ccc(-c3ccc(C[C@@H](C#N)NC(=O)[C@@H]4CN[C@@H](C)[C@@H](O)CO4)cc3)cc21 [Compound G9]", "UniProt P53634", "≤ 40%"],
  ["CO[C@@H]1CCNC[C@@H](C(=O)N[C@H](C#N)Cc2ccc(-c3ccc4nnn(C)c4c3)cc2)OC1 [Compound H6]", "UniProt P53634", "≥ 66.7%"],
  ["CCN1C(=O)Cc2ccc(-c3ccc(C[C@@H](C#N)NC(=O)[C@@H]4CN[C@@H](C)[C@@H](O)CO4)c(F)c3)cc21 [Compound G10]", "UniProt P53634", "40 to 66.7%"],
  ["CO[C@H]1CCO[C@H](C(=O)NC(C#N)Cc2cc3c(cc2F)-c2ccc4oc(=O)n(C)c4c2CO3)CNC1 (some centres unmarked) [Compound C17]", "UniProt P53634", "40 to 66.7%"],
  ["CN1CCN(Cc2ccc(-c3ccc(C[C@@H](C#N)NC(=O)[C@@H]4CNCCCCO4)cc3)cc2)CC1 [Compound 40]", "UniProt P53634", "≤ 40%"],
  ["Cn1nnc2ccc(-c3ccc(C[C@@H](C#N)NC(=O)[C@@H]4CNCCCCO4)c(F)c3)cc21 [Compound H38]", "UniProt P53634", "≤ 40%"],
  ["CO[C@H]1CCO[C@H](C(=O)N[C@H](C#N)Cc2ccc(-c3ccc4cnn(C5CCN(C)CC5)c4c3)cc2F)CNC1 [Compound H16]", "UniProt P53634", "≥ 66.7%"],
  ["CO[C@@H]1CCNC[C@@H](C(=O)N[C@H](C#N)Cc2ccc(-c3ccc4c(c3)C3(CCN(C)C3)OC4=O)cc2F)OC1 (some centres unmarked) [Compound F14]", "UniProt P53634", "≥ 66.7%"]
]}
